Numbers sourced from patent US7105527B2.

IC50 listing for selected compounds.
tested on: CEM (human lymphoblastoid) cells; assay: Cytotoxicity assay in CEM cells; type: cell-based; details: Table 1, read-out: Cytotoxicity in different cells (IC50, μM) CEM
Numeric answer only, unit µM assumed.

Record excerpt, results attached:
O=C(Nc1nc(=O)n([C@H]2CC[C@@H](CO)O2)cc1F)c1ccco1 [Compound 29] | 5.7
CCCCc1ccc(C(=O)Nc2nc(=O)n([C@H]3CC[C@@H](CO)O3)cc2F)cc1 [Compound 27] | 1.3
O=C(Nc1nc(=O)n([C@H]2CC[C@@H](CO)O2)cc1F)c1cccnc1 [Compound 31] | 5.5
COc1ccc(C(=O)Nc2nc(=O)n([C@H]3CC[C@@H](CO)O3)cc2F)cc1 [Compound 17] | 31.6
Cc1ccccc1C(=O)Nc1nc(=O)n([C@H]2CC[C@@H](CO)O2)cc1F [Compound 24] | 22.5

## Input Fill in the blank: the reported IC50 of CCCC(=O)Nc1nc(=O)n([C@H]2CC[C@@H](CO)O2)cc1F [Compound 34] is ____.
## Output 31.6

## Input I'd like to know its IC50. The compound in question is O=C(Nc1nc(=O)n([C@H]2CC[C@@H](CO)O2)cc1F)c1ccccc1 [Compound 21]
## Output 38.5

## Input What IC50 value was documented for this compound, CC(C)(C)c1ccc(C(=O)Nc2nc(=O)n([C@H]3CC[C@@H](CO)O3)cc2F)cc1 [Compound 28] ?
## Output 6

====

test: Cytotoxicity assay in Vero cells; type: cell-based; conditions: African green monkey, Table 1, read-out: Cytotoxicity in different cells (IC50, μM) Vero
Measured metric: IC50 (µM)
Report as a plain number; the unit µM is understood.

Cc1cccc(C(=O)Nc2nc(=O)n([C@H]3CC[C@@H](CO)O3)cc2F)c1 | 61.1

Proceeding to the next molecule to report its IC50.
## Input Tell me the measured IC50 of `O=C(Nc1nc(=O)n([C@H]2CC[C@@H](CO)O2)cc1F)c1cccc(Br)c1` , please.
## Output 80.6

====

tested on: CEM (human lymphoblastoid) cells; experiment: Cytotoxicity assay in CEM cells; format: cell-based; conditions: Table 2, read-out: Cytotoxicity in different cells (IC50, μM) CEM
Measured metric: IC50 (µM)
// note: answer is a bare numeric in µM

## Input Could you share what IC50 was measured for O=C(Nc1nc(=O)n([C@H]2C=C[C@@H](CO)O2)cc1F)c1cccs1 [Compound 54] , tested on CEM (human lymphoblastoid) cells?
## Output 3.9

## Input Give IC50 (CEM (human lymphoblastoid) cells) of the following compound: CCc1ccc(C(=O)Nc2nc(=O)n([C@H]3C=C[C@@H](CO)O3)cc2F)cc1 [Compound 51]
## Output 8.1

====

tested on: Vero cells; assay: Cytotoxicity assay in Vero cells; type: cell-based; details: Table 2, read-out: Cytotoxicity in different cells (IC50, μM) Vero
Measured metric: IC50 (µM)
Number in µM, nothing else.

O=C(Nc1nc(=O)n([C@H]2C=C[C@@H](CO)O2)cc1F)c1cccc(Cl)c1 [Compound 40] | 100
CC(C)(C)c1ccc(C(=O)Nc2nc(=O)n([C@H]3C=C[C@@H](CO)O3)cc2F)cc1 [Compound 53] | 59.2

## Input Hello, I am looking for reported IC50 with Vero cells for O=C(Nc1nc(=O)n([C@H]2C=C[C@@H](CO)O2)cc1F)c1cc2ccccc2s1 [Compound 56] . Could you help?
## Output 5.6

## Input Under Vero cells: IC50 value of CCCCc1ccc(C(=O)Nc2nc(=O)n([C@H]3C=C[C@@H](CO)O3)cc2F)cc1 [Compound 52] ?
## Output 29.4

====

Listed here are compounds together with their documented IC50.
assay: Cytotoxicity assay in PBM cells; format: cell-based, human; settings: human, human PBM cells, Table 1, read-out: Cytotoxicity in different cells (IC50, μM) PBM

# count of solved cases: 5
O=C(Nc1nc(=O)n([C@H]2CC[C@@H](CO)O2)cc1F)c1cccc(F)c1 [Compound 14] | > 100 µM
O=C(Nc1nc(=O)n([C@H]2CC[C@@H](CO)O2)cc1F)c1ccc([N+](=O)[O-])cc1 [Compound 18] | > 100 µM
CCc1ccc(C(=O)Nc2nc(=O)n([C@H]3CC[C@@H](CO)O3)cc2F)cc1 [Compound 25] | > 100 µM
CCCc1ccc(C(=O)Nc2nc(=O)n([C@H]3CC[C@@H](CO)O3)cc2F)cc1 [Compound 26] | > 100 µM
O=C(Nc1nc(=O)n([C@H]2CC[C@@H](CO)O2)cc1F)c1ccc(F)cc1 [Compound 11] | > 100 µM

## Input Record request: IC50 value, item O=C(Nc1nc(=O)n([C@H]2CC[C@@H](CO)O2)cc1F)c1ccc(I)cc1 [Compound 10]
## Output > 100 µM

## Input If you can, please state the reported IC50 value of O=C(Nc1nc(=O)n([C@H]2CC[C@@H](CO)O2)cc1F)C1CCCCC1 [Compound 33] .
## Output 4.5 µM

====

Listing: IC50 of selected compounds
experiment: Cytotoxicity assay in HepG2 cells; type: cell-based; conditions: human, Table 2, read-out: Cytotoxicity in different cells (IC50, μM) HepG2

# example entries with known answers
Cc1ccc(C(=O)Nc2nc(=O)n([C@H]3C=C[C@@H](CO)O3)cc2F)cc1 | > 100 µM
O=C(Nc1nc(=O)n([C@H]2C=C[C@@H](CO)O2)cc1F)c1ccc(F)cc1 | 93.6 µM
O=C(Nc1nc(=O)n([C@H]2C=C[C@@H](CO)O2)cc1F)c1ccc(Br)cc1 | > 100 µM
Cc1cccc(C(=O)Nc2nc(=O)n([C@H]3C=C[C@@H](CO)O3)cc2F)c1 | > 100 µM

## Input Look up IC50 for this compound: `O=C(Nc1nc(=O)n([C@H]2C=C[C@@H](CO)O2)cc1F)c1cccc([N+](=O)[O-])c1`
## Output > 100 µM

## Input # get_value(readout='IC50', item= `O=C(Nc1nc(=O)n([C@H]2C=C[C@@H](CO)O2)cc1F)C1CCCC1` )
## Output > 100 µM

====

test system: HIV-1RF; experiment: Anti-HIV (in MT-2 cells) assay, viral RNA accumulation; type: cell-based; conditions: Table 2; EC90; MT-2 cells; read-out: Anti-HIV-1 activity in different cells (EC90, μM) MT-2
Listed here: items and their measured log10 EC90.
# log10 transformed; quantity=EC90; unit=µM

## Input For O=C(Nc1nc(=O)n([C@H]2C=C[C@@H](CO)O2)cc1F)c1cccnc1 [Compound 55] , what is its reported log10 EC90?
## Output 1.46

====

experiment: Cytotoxicity assay in PBM cells; type: cell-based, human; conditions: human, human PBM cells, Table 2, read-out: Cytotoxicity in different cells (IC50, μM) PBM
Measured metric: IC50 (µM)
Entry rule: numbers only, all in µM.

Worked set:
O=C(Nc1nc(=O)n([C@H]2C=C[C@@H](CO)O2)cc1F)c1ccc(Cl)cc1 [Compound 36] | 11.9
O=C(Nc1nc(=O)n([C@H]2C=C[C@@H](CO)O2)cc1F)c1ccc(F)cc1 [Compound 35] | 53.1
O=C(Nc1nc(=O)n([C@H]2C=C[C@@H](CO)O2)cc1F)C1CCCC1 [Compound 57] | 52.9
Cc1ccc(C(=O)Nc2nc(=O)n([C@H]3C=C[C@@H](CO)O3)cc2F)cc1 [Compound 48] | 13.2
O=C(Nc1nc(=O)n([C@H]2C=C[C@@H](CO)O2)cc1F)c1cccc([N+](=O)[O-])c1 [Compound 46] | 11.9

## Input For the compound Cc1cccc(C(=O)Nc2nc(=O)n([C@H]3C=C[C@@H](CO)O3)cc2F)c1 [Compound 49] , what IC50 is on record?
## Output 57.1

## Input Need IC50, item O=C(Nc1nc(=O)n([C@H]2C=C[C@@H](CO)O2)cc1F)c1ccc(Br)cc1 [Compound 37]
## Output 53

## Input # IC50 lookup, item O=C(Nc1nc(=O)n([C@H]2C=C[C@@H](CO)O2)cc1F)c1ccc(I)cc1 [Compound 38]
## Output 57

## Input I have this compound here, O=C(Nc1nc(=O)n([C@H]2C=C[C@@H](CO)O2)cc1F)C1CCCCC1 [Compound 58] , and I need its recorded IC50.
## Output 11.7

====

Measured IC50 by item
test system: human PBM cells; assay: Cytotoxicity assay in PBM cells; type: cell-based; details: Table 1, read-out: Cytotoxicity in different cells (IC50, μM) PBM
Number only, in µM; omit the unit.

Use these answered entries as a reference point.
CCCC(=O)Nc1nc(=O)n([C@H]2CC[C@@H](CO)O2)cc1F | 17.1
O=C(Nc1nc(=O)n([C@H]2CC[C@@H](CO)O2)cc1F)c1ccco1 | 16.9
O=C(Nc1nc(=O)n([C@H]2CC[C@@H](CO)O2)cc1F)c1cccnc1 | 8.8

## Input Reported IC50, molecule `O=C(Nc1nc(=O)n([C@H]2CC[C@@H](CO)O2)cc1F)c1ccccc1` : ____
## Output 67

## Input What does the data say about its IC50? Entry: `Cc1ccccc1C(=O)Nc1nc(=O)n([C@H]2CC[C@@H](CO)O2)cc1F`
## Output 20.6

## Input # get_value(readout='IC50', item= `COc1ccc(C(=O)Nc2nc(=O)n([C@H]3CC[C@@H](CO)O3)cc2F)cc1` )
## Output 69.2

## Input Need IC50, item `CC(C)(C)c1ccc(C(=O)Nc2nc(=O)n([C@H]3CC[C@@H](CO)O3)cc2F)cc1`
## Output 12.5

## Input Request the reported IC50 associated with `CCCCc1ccc(C(=O)Nc2nc(=O)n([C@H]3CC[C@@H](CO)O3)cc2F)cc1`
## Output 1.1
